Listing: growth at 10 µM of selected compounds
- System: SF-295
- run description: Growth inhibition of human SF295 cells assessed as cell growth at 10 uM incubated for 48 hrs by sulforhodamine B assay relative to control
- Format: functional
- run conditions: SF-295, 48 h, read-out: Activity
Report only the number, with the unit % understood.

Please review the following examples before continuing.
[[record]]
smiles_str = "COc1cc2cc(Oc3ccc(NC(=O)Nc4ccc(Cl)c(C(F)(F)F)c4)cc3)c(C)nc2cc1OC"
measured_endpoint = "growth at 10 µM"
unit_info = "%"
result_number = -70.9

[[record]]
smiles_str = "COc1cc2cc(Sc3ccc(NC(=O)Nc4ccc(Cl)c(Cl)c4)cc3)c(C)nc2cc1OC"
measured_endpoint = "growth at 10 µM"
unit_info = "%"
result_number = 56.5

[[record]]
smiles_str = "COc1cc2cc(Oc3ccc(NC(=O)Nc4cccc(C(F)(F)F)c4)cc3)c(C)nc2cc1OC"
measured_endpoint = "growth at 10 µM"
unit_info = "%"
result_number = -15.1

[[record]]
smiles_str = "COc1cc2cc(Oc3ccc(NC(=O)Nc4cc(C(F)(F)F)cc(C(F)(F)F)c4)cc3)c(C)nc2cc1OC"
measured_endpoint = "growth at 10 µM"
unit_info = "%"
result_number = -59.2


Lab note: next compound to report on.
Inquiry: Dear colleague, I am looking for the recorded growth at 10 µM of the following compound: COc1cc2cc(Oc3ccc(NC(=O)Nc4ccc(Cl)c(Cl)c4)cc3)c(C)nc2cc1OC
Reply text: 0.69

###

- System: HT-29
- run description: Growth inhibition of human HT-29 cells incubated for 48 hrs by sulforhodamine B assay
- Type: functional
- run conditions: HT-29, 48 h
Entries and their GI50 values follow.
Expressed in nM, but write only the number.

[[record]]
compound = "CNC(=O)c1cc(Oc2ccc(NC(=O)Nc3ccc(Cl)c(C(F)(F)F)c3)cc2)ccn1 [SORAFENIB]"
measured_endpoint = "GI50"
unit_info = "nM"
result_number = 2000

[[record]]
compound = "COc1cc2cc(Oc3ccc(NC(=O)Nc4ccc(Cl)c(C(F)(F)F)c4)cc3)c(C)nc2cc1OC"
measured_endpoint = "GI50"
unit_info = "nM"
result_number = 1200

[[record]]
compound = "COc1cc2cc(Oc3ccc(NC(=O)Nc4cc(C(F)(F)F)cc(C(F)(F)F)c4)cc3)c(C)nc2cc1OC"
measured_endpoint = "GI50"
unit_info = "nM"
result_number = 1520

[[record]]
compound = "COc1cc2cc(Oc3ccc(NC(=O)Nc4ccc(Cl)c(Cl)c4)cc3)c(C)nc2cc1OC"
measured_endpoint = "GI50"
unit_info = "nM"
result_number = 2340

[[record]]
compound = "COc1cc2cc(Oc3ccc(NC(=O)Nc4cccc(C(F)(F)F)c4)cc3)c(C)nc2cc1OC"
measured_endpoint = "GI50"
unit_info = "nM"
result_number = 2050


// below: GI50 requested for another compound
Inquiry: Would you mind telling me what GI50 value was observed for Cc1nc2cc(O)c(O)cc2cc1Oc1ccc(NC(=O)Nc2ccc(Cl)c(Cl)c2)cc1 ?
Reply text: 11900

###

- Tested on: TK-10
- run description: Growth inhibition of human TK10 cells incubated for 48 hrs by sulforhodamine B assay
- Assay type: functional
- run conditions: TK-10, 48 h
measured endpoint: GI50
Answer as a quantity: numeral, then unit.

Some solved cases for reference:
[[record]]
smiles_str = "COc1cc2cc(Oc3ccc(NC(=O)Nc4ccc(Cl)c(Cl)c4)cc3)c(C)nc2cc1OC"
result = "3.46 µM"

[[record]]
smiles_str = "COc1cc2cc(Oc3ccc(NC(=O)Nc4cc(C(F)(F)F)cc(C(F)(F)F)c4)cc3)c(C)nc2cc1OC"
result = "2.32 µM"

[[record]]
smiles_str = "COc1cc2cc(Oc3ccc(NC(=O)Nc4ccc(Cl)c(C(F)(F)F)c4)cc3)c(C)nc2cc1OC"
result = "1.32 µM"


Inquiry: Entry under review: COc1cc2cc(Oc3ccc(NC(=O)Nc4cccc(C(F)(F)F)c4)cc3)c(C)nc2cc1OC . Reported GI50?
Reply text: 2.26 µM

Inquiry: Reported GI50, compound Cc1nc2cc(O)c(O)cc2cc1Oc1ccc(NC(=O)Nc2ccc(Cl)c(Cl)c2)cc1 : ____
Reply text: 14.2 µM
